Measured values drawn from PubChem BioAssay AID1159580 for this set.

- assay.info: chemical genetic growth profiling, strain panel (AID 1159580);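 note: tested at 20 µM; growth read once vehicle control cultures reached saturation at 30 °C; 1 = growth at the plate median or of vehicle wells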
- run.parameters: S. cerevisiae deletion strains, growth OD, locus YNL307C, strain MCK1 (second series), stronger effect = lower value
Among all 5,500 compounds or so, about 2,000 (36%) were called active. About 18% were inconclusive and are not listed. The list shows a part of the results.
experimental.readout: normalized growth

smiles_string=O=C1C(Cl)=C(Oc2cc(Cl)c(Cl)cc2Cl)C(=O)c2ccccc21 readout_value=0.246
smiles_string=O=C1/C(=C/c2ccccn2)CCc2ccccc21 readout_value=0.913
smiles_string=COc1ccccc1NC(=S)N/N=C\c1ccccc1O readout_value=0.949
smiles_string=COCCCNC(=S)N/N=C\c1cc(Cl)cc(Cl)c1O readout_value=0.909
smiles_string=O=S(=O)(CS(=O)(=O)Oc1ccc(Cl)c(Cl)c1)Oc1ccc(Cl)c(Cl)c1 readout_value=0.961
smiles_string=FC(F)(F)c1ccc(N2CCc3ccccc3C2)c(NC(=S)Nc2cc(Cl)cc(Cl)c2)c1 readout_value=0.941
smiles_string=CCOC(=O)N/N=C\c1cc(Cl)cc(Cl)c1O readout_value=0.621

----------
- assay.info: chemical genetic growth profiling, strain panel (AID 1159580);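 note: tested at 20 µM; growth read once vehicle control cultures reached saturation at 30 °C; 1 = growth at the plate median or of vehicle wells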
- run.parameters: S. cerevisiae deletion strains, growth OD, locus YDR392W, strain spt3
Among all 5,500 compounds or so, about 2,000 (36%) were called active. Not shown: some 18% with an inconclusive outcome. No stated cut-off is given here; in the data, active means normalized growth mostly below about 0.91 (no sharp cut-off); inconclusive means no clear call, values can overlap the other calls; inactive means mostly above about 0.92. The list shows a part of the results.
Labels: active, inactive

molecule=O=c1c(O)c(-c2ccc(O)c(O)c2)oc2cc(O)cc(O)c12 group_label=inactive
molecule=CC/C(=C(/CC)c1ccc(O)cc1)c1ccc(O)cc1 group_label=inactive
molecule="COC(=O)[C@@]1(C)CCC[C@]2(C)c3ccc(O)c(C(C)C)c3CCC12 (stereo not given in full)" group_label=active
molecule=O=c1c(O)c(-c2ccc(O)cc2O)oc2cc(O)cc(O)c12 group_label=inactive
molecule="CCC(N)C(O)c1ccc(O)c(O)c1 (stereo not given)" group_label=inactive
molecule="CC(C)c1c(O)ccc2c1CCC1[C@@](C)(C=O)CCC[C@]21C (stereo not given in full)" group_label=active
molecule=COc1ccc(-c2oc3cc(O[C@H]4O[C@H](CO)[C@@H](O)[C@H](O)[C@H]4O)c(OC)c(O)c3c(=O)c2OC)cc1O group_label=inactive
molecule=NC(=NCCC[C@H](N)C(=O)O)N[N+](=O)[O-] group_label=inactive
molecule="CC(=O)Oc1ccc2c(c1C(C)C)CCC1C(C)(C)CCC[C@]21C (stereo not given in full)" group_label=inactive
molecule="NS(=O)(=O)c1cc(C2(O)NC(=O)c3ccccc32)ccc1Cl (stereo not given)" group_label=inactive

----------
- assay.info: chemical genetic growth profiling, strain panel (AID 1159580);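 note: tested at 20 µM; growth read once vehicle control cultures reached saturation at 30 °C; 1 = growth at the plate median or of vehicle wells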
- run.parameters: S. cerevisiae deletion strains, growth OD, locus YBR023C, strain chs3, stronger effect = lower value
In all, about 5,500 compounds went through this assay and about 2,000 (36%) were called active. Roughly 18% stayed inconclusive and do not appear here. The list shows a part of the results.
experimental.readout: normalized growth

compound="CO[C@@]1(NC(=O)C(C(=O)O)c2ccc(O)cc2)C(=O)N2C(C(=O)O)=C(CSc3nnnn3C)CO[C@@H]21 (stereo not given in full)" experimental_readout="normalized growth" readout_value=0.994
compound="CC(=O)O[C@]1(C(C)=O)CCC2C3C=C(Cl)C4=CC(=O)[C@@H]5C[C@@H]5[C@]4(C)C3CC[C@@]21C (stereo not given in full)" experimental_readout="normalized growth" readout_value=1
compound="C[C@]12CCC3c4ccc(O)cc4CCC3C1C[C@@H](O)[C@@H]2O (stereo not given in full)" experimental_readout="normalized growth" readout_value=1.03
compound="CCC(c1ccc(O)cc1)C(CC)c1ccc(O)cc1 (stereo not given)" experimental_readout="normalized growth" readout_value=0.966
compound="CCC(N)C(O)c1ccc(O)c(O)c1 (stereo not given)" experimental_readout="normalized growth" readout_value=0.994
